- subjectOfTest: human recombinant mGluR5 (Homo sapiens, UniProt P41594)
- Construct: hygromycin and geneticin selection
- Sequence (P41594 21-1212): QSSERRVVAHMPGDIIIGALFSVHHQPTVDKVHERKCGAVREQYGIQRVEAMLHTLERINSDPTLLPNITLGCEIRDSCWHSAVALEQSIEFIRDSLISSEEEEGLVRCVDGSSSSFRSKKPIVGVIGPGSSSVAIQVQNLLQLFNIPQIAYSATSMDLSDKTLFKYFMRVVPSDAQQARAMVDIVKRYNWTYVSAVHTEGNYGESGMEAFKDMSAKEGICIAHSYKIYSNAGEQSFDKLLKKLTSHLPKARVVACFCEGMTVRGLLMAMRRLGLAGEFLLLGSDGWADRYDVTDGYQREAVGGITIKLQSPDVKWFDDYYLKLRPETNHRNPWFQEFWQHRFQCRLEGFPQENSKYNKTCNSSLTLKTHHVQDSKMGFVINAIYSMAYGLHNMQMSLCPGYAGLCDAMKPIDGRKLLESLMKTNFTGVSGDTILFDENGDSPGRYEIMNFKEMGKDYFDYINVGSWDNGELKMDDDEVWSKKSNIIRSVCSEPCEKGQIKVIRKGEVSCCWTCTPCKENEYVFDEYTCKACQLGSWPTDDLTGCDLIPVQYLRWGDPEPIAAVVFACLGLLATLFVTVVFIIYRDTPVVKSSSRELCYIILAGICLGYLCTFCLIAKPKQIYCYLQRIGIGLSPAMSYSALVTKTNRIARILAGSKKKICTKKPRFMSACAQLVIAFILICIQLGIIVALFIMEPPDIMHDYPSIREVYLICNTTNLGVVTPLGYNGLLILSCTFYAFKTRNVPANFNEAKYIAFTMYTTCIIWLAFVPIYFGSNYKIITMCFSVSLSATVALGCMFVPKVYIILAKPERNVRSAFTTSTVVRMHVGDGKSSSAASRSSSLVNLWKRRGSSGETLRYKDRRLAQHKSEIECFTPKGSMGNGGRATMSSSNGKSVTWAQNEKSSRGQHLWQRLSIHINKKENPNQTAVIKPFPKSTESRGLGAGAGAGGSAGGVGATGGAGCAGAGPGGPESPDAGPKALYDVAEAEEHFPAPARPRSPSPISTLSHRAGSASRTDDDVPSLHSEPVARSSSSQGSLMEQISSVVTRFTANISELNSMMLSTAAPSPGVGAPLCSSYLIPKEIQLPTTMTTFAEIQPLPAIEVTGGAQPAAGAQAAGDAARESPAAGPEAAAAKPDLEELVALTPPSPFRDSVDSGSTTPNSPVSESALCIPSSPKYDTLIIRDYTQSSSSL
- testDetails: positive modulation of mGluR5, calcium based FLIPR assay
- particulars: HEK 293 cell line expressing human recombinant mGluR5; Ca2+ peak height after glutamate at approximately 5% basal stimulation; nonlinear regression

compound	EC50
COc1ccc(C(=O)N2CCN(C(=O)c3ncn(-c4cccc(Cl)c4)n3)C(C)(C)C2)nc1OC	230 nM
COc1cc(Cl)cc(C(=O)N2CCN(C(=O)c3nnn(-c4ccccc4)n3)C(C)(C)C2)n1	25 nM
Cc1c(C(=O)N2CCN(C(=O)c3ncn(-c4cccc(Cl)c4)n3)C(C)(C)C2)oc2c(C)cccc12	104 nM
COc1cc2cc(C(=O)N3CCN(C(=O)c4ncn(-c5cccc(Cl)c5)n4)C(C)(C)C3)nc(OC)c2cc1OC	179 nM
CC1(C)CN(C(=O)c2cccc(Cl)c2)CCN1C(=O)c1ncn(-c2cccc(F)c2)n1	57 nM
Cc1cccc(-n2cnc(C(=O)N3CCN(C(=O)c4cc(Cl)c5c(c4)OCCO5)C(C)C3)n2)c1 (stereo not shown)	326 nM
Cn1c(CC2CCCC2)nc2ccc(C(=O)N3CCN(C(=O)c4ncn(-c5ccccc5)n4)C(C)(C)C3)cc21	153 nM

---

- subjectOfTest: human recombinant mGluR5 (Homo sapiens)
- Construct: hygromycin and geneticin selection
- testDetails: positive modulation of mGluR5, calcium based FLIPR assay
- particulars: HEK 293 cell line expressing human recombinant mGluR5; Ca2+ peak height after glutamate at approximately 5% basal stimulation; nonlinear regression
pEC50: −log10 of the molar value.
Classify by measured pEC50: Fulfilled if it is equal to or exceeds 7, Not fulfilled if it is smaller.

compound	category
CC1CN(C(=O)c2cn(C)c3ccccc23)CCN1C(=O)c1ncn(-c2cccc(Cl)c2)n1 (stereo not shown)	Not fulfilled
COc1cc(C(=O)N2CCN(C(=O)c3ncn(-c4ccccc4)n3)C(C)C2)ccc1C (stereo not shown)	Not fulfilled
COc1cc(Br)cc(C(=O)N2CCN(C(=O)c3ncn(-c4cccc(Cl)c4)n3)C(C)(C)C2)n1	Fulfilled
CC1CN(C(=O)c2cccc3c2OCO3)CCN1C(=O)c1ncn(-c2cccc(Cl)c2)n1 (stereo not shown)	Not fulfilled
CC1(C)CN(C(=O)c2cccc(Cl)c2)CCN1C(=O)c1nnn(-c2ccc(F)cc2)n1	Not fulfilled
C[C@H]1CN(C(=O)c2ncn(-c3cccc(F)c3)n2)CCN1C(=O)c1cc(Br)c(Br)o1	Not fulfilled
CC1(C)CN(C(=O)c2cc3nccc(-c4ccccc4)n3n2)CCN1C(=O)c1ncn(-c2cccc(Cl)c2)n1	Fulfilled
COc1cccc(C(=O)N2CCN(C(=O)c3ncn(-c4cccc(C)c4)n3)C[C@H]2C)n1	Not fulfilled
COc1cc(OC)cc(C(=O)N2CCN(C(=O)c3ncn(-c4cccc(Cl)c4)n3)CC2C)c1 (stereo not shown)	Not fulfilled
COc1nc(C(=O)N2CCN(C(=O)c3ncn(-c4ccccc4)n3)C(C)(C)C2)cc2ccccc12	Fulfilled
COc1cccc2c(C)c(C(=O)N3CCN(C(=O)c4ncn(-c5cccc(Cl)c5)n4)C(C)(C)C3)oc12	Fulfilled
Cc1cc(-n2cnc(C(=O)N3CCN(C(=O)c4c(C)oc5ccccc45)CC3(C)C)n2)ccc1F	Not fulfilled
CCC1(CC)CN(C(=O)c2cccc(Cl)c2)CCN1C(=O)c1ncn(-c2ccccc2)n1	Not fulfilled

---

- subjectOfTest: human recombinant mGluR5 (Homo sapiens)
- Construct: hygromycin and geneticin selection
- testDetails: positive modulation of mGluR5, calcium based FLIPR assay
- particulars: HEK 293 cell line expressing human recombinant mGluR5; Ca2+ peak height after glutamate at approximately 5% basal stimulation; nonlinear regression
pEC50: −log10 of the molar value.
molecules and their reported pEC50

molecule	pEC50
Cc1c(C(=O)N2CCN(C(=O)c3ncn(-c4ccccc4)n3)CC2C)oc2ccc(F)cc12 (stereo not shown)	6.01
CC1CN(C(=O)c2cccc(-c3ccn(C)n3)c2)CCN1C(=O)c1ncn(-c2cccc(Cl)c2)n1 (stereo not shown)	6.35
COc1cccc(C(=O)N2CCN(C(=O)c3nnn(-c4cccc(C)c4)n3)C(C)(C)C2)n1	6.91
COCc1c(C(=O)N2CCN(C(=O)c3ncn(-c4cccc(Cl)c4)n3)C(C)C2)oc2ccccc12 (stereo not shown)	6.09
CC1(C)CN(C(=O)c2cccc(C(F)(F)F)c2)CCN1C(=O)c1ncn(-c2ccccc2)n1	7.49
C[C@@H]1CN(C(=O)c2ncn(-c3cccc(Cl)c3)n2)CCN1C(=O)c1cc(Br)c(Br)o1	6.70
COc1cccc(C(=O)N2CCN(C(=O)c3ncn(-c4ccccc4)n3)CC2C)n1 (stereo not shown)	6.43
Cc1cc(Cl)cc(C(=O)N2CCN(C(=O)c3ncn(-c4cccc(Cl)c4)n3)C(C)(C)C2)n1	6.42
CCC1CN(C(=O)c2ncn(-c3cccc(Cl)c3)n2)CCN1C(=O)c1cccc(OC)n1 (stereo not shown)	6.76
Cn1nc(C(=O)N2CCN(C(=O)c3ncn(-c4ccccc4)n3)C(C)(C)C2)c2ccccc21	6.60
COc1cccc(C(=O)N2CCN(C(=O)c3nnn(-c4cccc(F)c4)n3)C(C)(C)C2)n1	7.19
CC1CN(C(=O)c2ccc3ccn(C)c3c2)CCN1C(=O)c1ncn(-c2cccc(Cl)c2)n1 (stereo not shown)	6.46
COc1cccc(C(=O)N2CCN(C(=O)c3ncn(-c4ccccc4)n3)C(C)C2)n1 (stereo not shown)	6.21
COc1cccc(C(=O)N2CCN(C(=O)c3ncn(-c4cccc(Cl)c4)n3)C(C)(C)C2)n1	7.32
COc1ccc(C(=O)N2CCN(C(=O)c3ncn(-c4ccccc4)n3)C(C)(C)C2)o1	5.74
CCn1cc(-c2cccc(C(=O)N3CCN(C(=O)c4ncn(-c5cccc(Cl)c5)n4)C(C)(C)C3)n2)cn1	6.92

---

Below is a list of entries, each paired with its recorded EC50 value.
- subjectOfTest: human recombinant mGluR5 (Homo sapiens)
- Construct: hygromycin and geneticin selection
- testDetails: positive modulation of mGluR5, calcium based FLIPR assay
- particulars: HEK 293 cell line expressing human recombinant mGluR5; Ca2+ peak height after glutamate at approximately 5% basal stimulation; nonlinear regression

molecule	EC50 [nM]
CC1(C)CN(C(=O)c2cc(Br)c(Br)o2)CCN1C(=O)c1ncn(-c2ccccc2)n1	64
Cc1nn(C)cc1-c1cccc(C(=O)N2CCN(C(=O)c3ncn(-c4cccc(Cl)c4)n3)C(C)(C)C2)n1	242
CC1(C)CN(C(=O)c2ccccc2)CCN1C(=O)c1ncn(-c2ccccc2)n1	770
CC1(C)CN(C(=O)c2cccc(C3CCC3)n2)CCN1C(=O)c1ncn(-c2ccccc2)n1	69
CCCc1nc2cc(C(=O)N3CCN(C(=O)c4ncn(-c5ccccc5)n4)C(C)(C)C3)cc(C)c2[nH]1	2170
Cc1ccc2oc(C(=O)N3CCN(C(=O)c4ncn(-c5cccc(Cl)c5)n4)CC3C)c(C)c2c1 (centres unmarked)	954
CC(C)c1cccc(C(=O)N2CCN(C(=O)c3ncn(-c4cccc(Cl)c4)n3)C(C)(C)C2)c1	19
CC1(C)CN(C(=O)c2cc(Cl)ccc2F)CCN1C(=O)c1ncn(-c2ccccc2)n1	134

---

A collection of compounds and their measured EC50
- subjectOfTest: human recombinant mGluR5 (Homo sapiens, UniProt P41594)
- Construct: hygromycin and geneticin selection
- testDetails: positive modulation of mGluR5, calcium based FLIPR assay
- particulars: HEK 293 cell line expressing human recombinant mGluR5; Ca2+ peak height after glutamate at approximately 5% basal stimulation; nonlinear regression
measuredEndpoint: EC50 (nM)

compound	readoutValue
CC1(C)CN(C(=O)c2cccc(C3CC3)n2)CCN1C(=O)c1nnn(-c2cccc(Cl)c2)n1	28
CC1(C)CN(C(=O)c2cc(Cl)c3c(c2)OCCO3)CCN1C(=O)c1ncn(-c2cccc(Cl)c2)n1	51
COc1cccc(C(=O)N2C[C@@H](C)N(C(=O)c3ncn(-c4cccc(F)c4)n3)[C@@H](C)C2)n1	215
COc1ccc2oc(C)c(C(=O)N3CCN(C(=O)c4ncn(-c5cccc(C)c5)n4)C(C)C3)c2c1 (stereo not shown)	272
CC1(C)CN(C(=O)c2cccc(C3CC3)c2)CCN1C(=O)c1ncn(-c2ccccc2)n1	52
CC(=O)c1cccc(C(=O)N2CCN(C(=O)c3ncn(-c4ccccc4)n3)C(C)(C)C2)n1	145
CC1(C)CN(C(=O)c2cccc(OC(F)(F)F)c2)CCN1C(=O)c1ncn(-c2cccc(Cl)c2)n1	388

---

- subjectOfTest: human recombinant mGluR5 (Homo sapiens)
- Construct: hygromycin and geneticin selection
- testDetails: positive modulation of mGluR5, calcium based FLIPR assay
- particulars: HEK 293 cell line expressing human recombinant mGluR5; Ca2+ peak height after glutamate at approximately 5% basal stimulation; nonlinear regression
Measured EC50, listed per entry.
measuredEndpoint: EC50 (nM)

compound	unitsOfMeasure	readoutValue
Cc1cc(C(=O)N2CCN(C(=O)c3ncn(-c4cccc(Cl)c4)n3)C(C)(C)C2)ccc1F [Example 64]	nM	262
Cc1cccc(-n2cnc(C(=O)N3CCN(C(=O)c4c(C)oc5ccccc45)C(C)C3)n2)c1 (stereo not drawn) [Example 238]	nM	317
COc1cccc(C(=O)N2CCN(C(=O)c3ncn(-c4ccccc4)n3)C(C)(C)C2)c1 [Example 122]	nM	213
CCC[C@H]1CN(C(=O)c2ncn(-c3cccc(F)c3)n2)CCN1C(=O)c1cc(Br)c(Br)o1 [Example 262]	nM	193
COc1nc(C(=O)N2CCN(C(=O)c3ncn(-c4ccc(F)c(C)c4)n3)C(C)(C)C2)cc2ccccc12 [Example 160]	nM	207
Cc1c(C(=O)N2CCN(C(=O)c3ncn(-c4cccc(Cl)c4)n3)C(C)(C)C2)oc2ccc(F)cc12 [Example 41]	nM	200
Cn1ccc2cc(C(=O)N3CCN(C(=O)c4ncn(-c5ccccc5)n4)C(C)(C)C3)ccc21 [Example 138]	nM	136
Cc1noc(C)c1-c1cccc(C(=O)N2CCN(C(=O)c3ncn(-c4cccc(Cl)c4)n3)C(C)(C)C2)n1 [Example 90]	nM	38
CC1(C)CN(C(=O)c2cccc(C(F)(F)F)n2)CCN1C(=O)c1ncn(-c2ccccc2)n1 [Example 101]	nM	52
CC1(C)CN(C(=O)c2cc(C(F)(F)F)ccn2)CCN1C(=O)c1ncn(-c2cccc(Cl)c2)n1 [Example 89]	nM	168
CC1(C)CN(C(=O)c2cc(Cl)c3c(c2)OCCO3)CCN1C(=O)c1nnn(-c2cccc(F)c2)n1 [Example 170]	nM	37
CC1CN(C(=O)c2ncn(-c3cccc(Cl)c3)n2)CCN1C(=O)c1cc2ccccc2o1 (stereo not drawn) [Example 214]	nM	428
Cc1cccc(-n2cnc(C(=O)N3C[C@@H](C)N(C(=O)c4oc5ccc(Cl)cc5c4C)[C@@H](C)C3)n2)c1 [Example 264]	nM	891
CC1(C)CN(C(=O)c2cccc(S(C)(=O)=O)c2)CCN1C(=O)c1ncn(-c2ccccc2)n1 [Example 131]	nM	1870
CC1(C)CN(C(=O)c2cccc(Cl)c2)CCN1C(=O)c1nnn(-c2cccc(Cl)c2)n1 [Example 191]	nM	64
CCC1CN(C(=O)c2ncn(-c3cccc(F)c3)n2)CCN1C(=O)c1cccc(OC)n1 (stereo not drawn) [Example 259]	nM	231
CC1(C)CN(C(=O)c2cccc(Cl)c2)CCN1C(=O)c1nnn(-c2ccccc2F)n1 [Example 196]	nM	156
CC1(C)CN(C(=O)c2cccc(C3CCCC3)c2)CCN1C(=O)c1ncn(-c2ccccc2)n1 [Example 144]	nM	23
COc1cc(Cl)cc(C(=O)N2CCN(C(=O)c3ncn(-c4ccccc4)n3)C(C)(C)C2)c1 [Example 121]	nM	123
COc1ccnc(C(=O)N2CCN(C(=O)c3ncn(-c4cccc(Cl)c4)n3)C(C)(C)C2)c1 [Example 40]	nM	852
CC1(C)CN(C(=O)c2cc(Cl)c3c(c2)OCCO3)CCN1C(=O)c1ncn(-c2ccccc2)n1 [Example 104]	nM	50
Cc1cc2cc(C(=O)N3CCN(C(=O)c4ncn(-c5cccc(Cl)c5)n4)C(C)(C)C3)ccc2[nH]1 [Example 80]	nM	139
Cc1c(C(=O)N2CCN(C(=O)c3ncn(-c4cccc(Cl)c4)n3)C(C)(C)C2)oc2ccccc12 [Example 45]	nM	54
CCc1ccc(C(=O)N2CCN(C(=O)c3ncn(-c4cccc(Cl)c4)n3)C(C)(C)C2)cc1 [Example 81]	nM	155
COc1cccc(C(=O)N2CCN(C(=O)c3ncn(-c4cccc(Cl)c4)n3)C(C)C2)n1 (stereo not drawn) [Example 265]	nM	194
COc1ccc2c(C)c(C(=O)N3CCN(C(=O)c4ncn(-c5cccc(Cl)c5)n4)CC3C)oc2c1 (stereo not drawn) [Example 213]	nM	817
COCC1(C)CN(C(=O)c2cccc(OC)n2)CCN1C(=O)c1ncn(-c2cccc(C)c2)n1 (stereo not drawn) [Example 310]	nM	802
COc1cccc(-c2cccc(C(=O)N3CCN(C(=O)c4ncn(-c5cccc(Cl)c5)n4)C(C)(C)C3)c2)c1 [Example 69]	nM	53
CC1(C)CN(C(=O)c2cccc(C(F)(F)F)n2)CCN1C(=O)c1nnn(-c2ccccc2)n1 [Example 168]	nM	15
CC1(C)CN(C(=O)c2cccc3c2OCO3)CCN1C(=O)c1ncn(-c2cccc(Cl)c2)n1 [Example 48]	nM	127

Data provenance: patent US8883789B2
